These measurements were taken from paper PMC10397247.

testedOn: T1, 4H656-AA
T1 chain: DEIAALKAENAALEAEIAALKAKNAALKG
testDetails: two-hybrid library CCmax;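 further: natural log of median RNA to DNA barcode read ratio; higher means stronger binding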
testParameters: mean of both orientations
attributeMeasured: interaction score

>>> valuemeasured("DENAALEAKIAALKAEIAALEAENAALKG [4H1348-AA]")
-0.833
>>> valuemeasured("DKIAALKAKNAALKAKNAALKAEIAALKG [4H3066-AA]")
0.231
>>> valuemeasured("DENAALEAEIAALEAEIAALKAENAALEG [4H1035-AA]")
-1.67
